# target.desc: ER (Homo sapiens (Human), UniProt P03372)
# Sequence (P03372 whole entry): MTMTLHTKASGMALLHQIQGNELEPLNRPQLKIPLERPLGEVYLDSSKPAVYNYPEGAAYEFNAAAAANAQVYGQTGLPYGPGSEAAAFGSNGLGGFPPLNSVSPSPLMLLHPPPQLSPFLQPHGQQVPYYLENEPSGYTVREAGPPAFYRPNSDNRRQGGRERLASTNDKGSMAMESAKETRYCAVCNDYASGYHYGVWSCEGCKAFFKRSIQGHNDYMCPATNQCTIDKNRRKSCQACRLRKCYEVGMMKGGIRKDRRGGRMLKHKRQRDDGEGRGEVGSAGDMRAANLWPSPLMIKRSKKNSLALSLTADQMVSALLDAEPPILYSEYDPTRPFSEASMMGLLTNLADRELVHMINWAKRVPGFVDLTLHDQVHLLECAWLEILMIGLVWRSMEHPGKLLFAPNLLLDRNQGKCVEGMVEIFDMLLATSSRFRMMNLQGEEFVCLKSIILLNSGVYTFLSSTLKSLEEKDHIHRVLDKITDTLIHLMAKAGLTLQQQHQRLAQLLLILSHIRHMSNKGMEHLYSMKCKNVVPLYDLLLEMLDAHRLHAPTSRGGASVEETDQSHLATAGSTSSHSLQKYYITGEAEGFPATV
# assay.comment: In-cell western (ICW) ER degradation assay in T47D cells
# Type: cell-based
# experimental.conditions: ER degradation, 16 hrs
recorded.metric: DC50

O=C1CC[C@@H](NC(=O)c2ccc(N3CCC(CN4CC5(CCN(c6ccc([C@H]7c8ccc(O)cc8OC[C@H]7c7ccccc7)cc6)CC5)C4)CC3)cn2)C(=O)N1 (single isomer, unassigned): < 1 nM

Kindly review the next compound as well.
## Task Dear colleague, please send me the reported DC50 for COc1cc(N2CCC(CN3CCN4c5ccc6c(c5OC[C@H]4C3)CN(C3CCC(=O)NC3=O)C6=O)CC2)ccc1[C@H]1c2ccc(O)cc2OC[C@H]1c1ccccc1 (stereo partly drawn) when you can.
## Result > 100 nM

----------
In this section, each of the compounds is paired with its reported Dmax.
# target.desc: ER (Homo sapiens (Human), UniProt P03372)
# assay.comment: In-cell western (ICW) ER degradation assay in T47D cells
# Type: cell-based
# experimental.conditions: maximal ER degradation, 16 hrs

O=C1CCN(c2ccc(N3CCC4(CC3)CC(CN3CCN(c5ccc([C@@H]6c7ccc(O)cc7OC[C@@H]6c6ccccc6)cc5)CC3)C4)cc2)C(=O)N1 [Compound A112]: < 25%

## Task Dear colleague, please send me the reported Dmax for O=C1CC[C@@H](N2Cc3cc4c(cc3C2=O)OC[C@H]2CN(CC3COC5(CCN(c6ccc(C7c8ccc(O)cc8OCC7c7ccccc7)cc6)CC5)C3)CCN42)C(=O)N1 (stereo in doubt) [Compound A139] when you can.
## Result 50 to 75%

## Task Dear colleague, please send me the reported Dmax for O=C1CC[C@H](N2Cc3c(ccc4c3OC[C@H]3CN(C[C@@H]5COC6(CCN(c7ccc([C@@H]8c9ccc(O)cc9OC[C@@H]8c8ccccc8)cc7F)CC6)C5)CCN43)C2=O)C(=O)N1 (single isomer, unassigned) [Compound A157] when you can.
## Result ≥ 75%

## Task Dear colleague, please send me the reported Dmax for O=C1CCC(N2Cc3cc4c(cc3C2=O)OCC42CCN(CC3CC4(CCN(c5ccc([C@H]6c7ccc(O)cc7OC[C@H]6c6ccccc6)cn5)CC4)C3)CC2)C(=O)N1 (some centres unmarked) [Compound A123] when you can.
## Result 50 to 75%

## Task Dear colleague, please send me the reported Dmax for O=C1CCC(N2Cc3cc4c(cc3C2=O)OC[C@@H]2CN(CC3CCN(c5ccc([C@@H]6c7ccc(O)cc7OC[C@@H]6c6ccccc6)cn5)CC3)CCN42)C(=O)N1 (single isomer, unassigned) [Compound A70] when you can.
## Result 25 to 50%

----------
# target.desc: ER (Homo sapiens (Human))
# assay.comment: In-cell western (ICW) ER degradation assay in T47D cells
# Format: cell-based
# experimental.conditions: maximal ER degradation, 16 hrs
recorded.metric: T47D Dmax %

COc1cc(N2CCC3(CC2)CC(CN2CCC4(CC2)COc2c4ccc4c2CN(C2CCC(=O)NC2=O)C4=O)C3)c(F)cc1[C@H]1c2ccc(O)cc2OC[C@H]1c1ccccc1 (some centres unmarked) [Compound A131]: B (“B”: >50% and <75%)
O=C1CCC(N2Cc3c(ccc4c3OC[C@H]3CN(CC5CC6(CCN(c7ccc([C@@H]8c9ccc(O)cc9OC[C@@H]8c8ccccc8)cn7)CC6)C5)CCN43)C2=O)C(=O)N1 (single isomer, unassigned) [Compound A66]: B (“B”: >50% and <75%)
O=C1CCC(N2Cc3cc(N4CCN(CC5CC6(CCN(c7ccc([C@@H]8c9ccc(O)cc9OC[C@@H]8c8ccccc8)cn7)CC6)C5)CC4)ccc3C2=O)C(=O)N1 (single isomer, unassigned) [Compound A92]: B (“B”: >50% and <75%)
